Biological target: Mu-type opioid receptor (Homo sapiens, UniProt P35372)
Sequence (P35372 whole entry): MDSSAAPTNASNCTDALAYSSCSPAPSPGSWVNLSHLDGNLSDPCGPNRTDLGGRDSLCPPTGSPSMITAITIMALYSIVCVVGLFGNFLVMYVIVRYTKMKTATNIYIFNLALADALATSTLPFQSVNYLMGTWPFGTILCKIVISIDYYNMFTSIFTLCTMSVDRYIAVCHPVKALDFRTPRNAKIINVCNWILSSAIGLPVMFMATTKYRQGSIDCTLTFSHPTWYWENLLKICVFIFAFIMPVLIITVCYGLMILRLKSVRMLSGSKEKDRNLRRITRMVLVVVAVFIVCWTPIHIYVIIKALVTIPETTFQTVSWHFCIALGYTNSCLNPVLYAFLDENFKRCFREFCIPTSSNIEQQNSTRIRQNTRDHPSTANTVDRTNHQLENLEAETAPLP
Experiment: Agonist activity at human MOP expressed in HEK293 cells coexpressing GloSensor-20F assessed as inhibition of forskolin-induced cAMP accumulation
Assay type: functional, cell-based
Numbered stars: 1 amine (or outer) side, 2 acyl side, 3 side chain; on linkers, the order of the positions; unused ones are H or OH. Square brackets hold non-standard residues; d marks the D form. Peptide text beside a SMILES is read from it. Nva(5-(4-Bn-piperidin-1-yl)) = N[C@@H](CCCN1CCC(Cc2ccccc2)CC1)C(=O)O; X1 = O=C1[C@@H](N[*:1])Cc2ccccc2CN1CCC(=O)[*:2]; Dmt = Cc1cc(O)cc(C)c1C[C@H](N)C(=O)O
Value type: EC50 (nM)
Kindly answer with a numeric value in nM, unit omitted.

Reference set, count: 2
{"columns": ["Compound", "Meas value"],
 "data": [
  ["Cc1cc(O)cc(C)c1C[C@H](N)C(=O)N[C@H](CCCNC(=N)N)C(=O)N[C@@H](Cc1ccccc1)C(=O)N(C)CCC(=O)N[C@@H](CCCN1CCC(Cc2ccccc2)CC1)C(=O)N[C@@H](Cc1ccccc1)C(N)=O", 8.9],
  ["Cc1cc(O)cc(C)c1C[C@H](NC(=N)N)C(=O)N[C@H](CCCNC(=N)N)C(=O)N[C@H]1Cc2ccccc2CN(CCC(=O)N[C@@H](CCCN2CCC(Cc3ccccc3)CC2)C(=O)N[C@@H](Cc2ccccc2)C(N)=O)C1=O", 9.9]
]}

Turning to the following compound.
Query Cc1cc(O)cc(C)c1C[C@H](N)C(=O)N1CCC[C@@H]1C(=O)N[C@H]1Cc2ccccc2CN(CCC(=O)N[C@@H](CCCN2CCC(Cc3ccccc3)CC2)C(=O)N[C@@H](Cc2ccccc2)C(N)=O)C1=O (H-[Dmt][dP][X1][Nva(5-(4-Bn-piperidin-1-yl))]F-NH2) on Mu-type opioid receptor (Homo sapiens, UniProt P35372); EC50 returned: 8
